# Target Desc: rat NR1/NR2B receptor (Rattus norvegicus (Rat), UniProt P35439+Q00960)
# Sequence (Q00960 27-1482, other chains not shown): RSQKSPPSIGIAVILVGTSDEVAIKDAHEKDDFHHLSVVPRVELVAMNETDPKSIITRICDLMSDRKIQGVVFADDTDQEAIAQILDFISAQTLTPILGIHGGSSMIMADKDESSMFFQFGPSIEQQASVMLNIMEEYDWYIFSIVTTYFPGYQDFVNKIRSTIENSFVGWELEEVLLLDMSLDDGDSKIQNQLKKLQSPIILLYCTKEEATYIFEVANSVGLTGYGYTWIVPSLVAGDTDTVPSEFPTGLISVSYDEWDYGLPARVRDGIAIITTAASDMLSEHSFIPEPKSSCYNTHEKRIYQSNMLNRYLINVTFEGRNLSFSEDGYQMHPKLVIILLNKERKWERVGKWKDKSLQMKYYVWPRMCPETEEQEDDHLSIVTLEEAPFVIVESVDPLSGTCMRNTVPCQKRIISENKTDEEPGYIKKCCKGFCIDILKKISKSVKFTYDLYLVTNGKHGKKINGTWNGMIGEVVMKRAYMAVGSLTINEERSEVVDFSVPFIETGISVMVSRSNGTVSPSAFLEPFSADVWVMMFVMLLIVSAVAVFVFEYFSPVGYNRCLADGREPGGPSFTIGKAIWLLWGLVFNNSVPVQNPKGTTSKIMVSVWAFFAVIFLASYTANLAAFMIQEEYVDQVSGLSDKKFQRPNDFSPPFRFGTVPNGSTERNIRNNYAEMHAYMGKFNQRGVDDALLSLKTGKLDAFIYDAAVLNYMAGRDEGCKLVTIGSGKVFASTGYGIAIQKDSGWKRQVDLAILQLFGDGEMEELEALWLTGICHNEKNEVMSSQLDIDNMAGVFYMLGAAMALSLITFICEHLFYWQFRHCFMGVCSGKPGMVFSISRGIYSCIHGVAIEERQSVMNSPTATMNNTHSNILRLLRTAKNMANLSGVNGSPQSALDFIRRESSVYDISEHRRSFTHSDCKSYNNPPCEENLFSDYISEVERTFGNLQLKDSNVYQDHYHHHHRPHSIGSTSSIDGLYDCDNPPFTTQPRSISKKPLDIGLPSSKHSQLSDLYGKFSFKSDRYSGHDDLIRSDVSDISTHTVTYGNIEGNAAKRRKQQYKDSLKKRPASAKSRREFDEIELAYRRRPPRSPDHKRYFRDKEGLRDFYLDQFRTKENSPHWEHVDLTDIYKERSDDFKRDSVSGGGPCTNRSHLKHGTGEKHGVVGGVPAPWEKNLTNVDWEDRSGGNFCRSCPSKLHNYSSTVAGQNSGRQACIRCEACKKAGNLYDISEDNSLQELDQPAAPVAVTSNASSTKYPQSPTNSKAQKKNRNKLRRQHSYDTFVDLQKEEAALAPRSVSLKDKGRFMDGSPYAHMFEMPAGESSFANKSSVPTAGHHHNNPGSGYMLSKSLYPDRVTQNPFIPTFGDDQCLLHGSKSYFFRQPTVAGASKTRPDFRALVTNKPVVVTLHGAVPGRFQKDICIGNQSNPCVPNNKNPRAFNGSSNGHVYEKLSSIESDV
# Assay Summary: NR2B binding assay: inhibition of specific [3H]-Ifenprodil binding to the rat NR1/NR2B receptor
# Test Settings: rat brain membranes, Hill-plot 2-parameter-model
Measured Metric: IC50 (nM)

[a] CS(=O)(=O)c1cccc(-n2cc(Cn3ccnc3CCF)nn2)c1
[b] Cc1nccn1Cc1cn(-c2ccc(Cl)c(C(F)F)c2)nn1
[c] Cc1nccn1Cc1cn(-c2ccc(Cl)cc2)nn1
Highest IC50 first, then in falling order down to the smallest. List the labels, following the order given in the request. a, c, b

====

Recorded pIC50, one value per entry.
# Target Desc: rat NR1/NR2B receptor (Rattus norvegicus (Rat), UniProt P35439+Q00960)
# Assay Summary: RRNR2BB: inhibition of specific binding to the rat NR1/NR2B receptor
# Test Settings: [3H]-Ifenprodil binding, rat brain membranes, Hill-plot 2-parameter-model
pIC50: −log10 of the molar value.

> print(dat)
                          smiles.string  obs.value
1  Clc1ccc(-n2cc(Cn3ncnc3C3CCC3)nn2)cc1     < 6.00

Recorded pIC50 for `CCc1ncn(Cc2cn(-c3ccc(Cl)cc3)nn2)n1` , please? < 5.00

Try `CC(C)(C)c1ncn(Cc2cn(-c3ccc(Cl)cc3)nn2)n1` next. < 5.00

====

// each record: one item and its pIC50 for hERG-receptor (Homo sapiens (Human))
Convention used: pIC50 is expressed as -log10 of the molar concentration.

> print(dat)
                                   molecule  measured.metric  obs.value
1  FCCc1nccn1Cc1cn(-c2ccc(Cl)c(Cl)c2)nn1 [Example 41]            pIC50       4.86
2  Cc1nccn1Cc1cn(-c2ccc(F)c(C(F)F)c2)nn1 [Example 81]            pIC50       4.84
3  Cc1nccn1Cc1cn(-c2ccc(Cl)cc2Cl)nn1 [Example 49]            pIC50       5.34

So what does the record say about pIC50 for Cc1nccn1Cc1cn(-c2ccc(Cl)c(C(F)F)c2)nn1 [Example 89] ? 5.07

Same question for CC(C)(C)c1nccn1Cc1cn(-c2ccc(Cl)c(Cl)c2)nn1 [Example 38] please. 5.25

Next record, please: OCCc1nccn1Cc1cn(-c2ccc(F)c(C(F)F)c2)nn1 [Example 88] 4.03

Request: CC(C)(C)c1ncnn1Cc1cn(-c2ccc(Cl)cc2)nn1 [Example 19] 4.47

Entry CCCc1nccn1Cc1cn(-c2ccc(F)c(Cl)c2)nn1 [Example 43] please 5.57

Also Cc1nccn1Cc1cn(-c2ccc(Cl)c(F)c2)nn1 [Example 50] , if possible. 5.47

What would you report for Cc1nccn1Cc1cn(-c2ccc(Cl)cc2)nn1 [Example 24] ? 5.25

====

# Target Desc: hERG-receptor (Homo sapiens (Human), UniProt Q12809)
# Sequence (Q12809 whole entry): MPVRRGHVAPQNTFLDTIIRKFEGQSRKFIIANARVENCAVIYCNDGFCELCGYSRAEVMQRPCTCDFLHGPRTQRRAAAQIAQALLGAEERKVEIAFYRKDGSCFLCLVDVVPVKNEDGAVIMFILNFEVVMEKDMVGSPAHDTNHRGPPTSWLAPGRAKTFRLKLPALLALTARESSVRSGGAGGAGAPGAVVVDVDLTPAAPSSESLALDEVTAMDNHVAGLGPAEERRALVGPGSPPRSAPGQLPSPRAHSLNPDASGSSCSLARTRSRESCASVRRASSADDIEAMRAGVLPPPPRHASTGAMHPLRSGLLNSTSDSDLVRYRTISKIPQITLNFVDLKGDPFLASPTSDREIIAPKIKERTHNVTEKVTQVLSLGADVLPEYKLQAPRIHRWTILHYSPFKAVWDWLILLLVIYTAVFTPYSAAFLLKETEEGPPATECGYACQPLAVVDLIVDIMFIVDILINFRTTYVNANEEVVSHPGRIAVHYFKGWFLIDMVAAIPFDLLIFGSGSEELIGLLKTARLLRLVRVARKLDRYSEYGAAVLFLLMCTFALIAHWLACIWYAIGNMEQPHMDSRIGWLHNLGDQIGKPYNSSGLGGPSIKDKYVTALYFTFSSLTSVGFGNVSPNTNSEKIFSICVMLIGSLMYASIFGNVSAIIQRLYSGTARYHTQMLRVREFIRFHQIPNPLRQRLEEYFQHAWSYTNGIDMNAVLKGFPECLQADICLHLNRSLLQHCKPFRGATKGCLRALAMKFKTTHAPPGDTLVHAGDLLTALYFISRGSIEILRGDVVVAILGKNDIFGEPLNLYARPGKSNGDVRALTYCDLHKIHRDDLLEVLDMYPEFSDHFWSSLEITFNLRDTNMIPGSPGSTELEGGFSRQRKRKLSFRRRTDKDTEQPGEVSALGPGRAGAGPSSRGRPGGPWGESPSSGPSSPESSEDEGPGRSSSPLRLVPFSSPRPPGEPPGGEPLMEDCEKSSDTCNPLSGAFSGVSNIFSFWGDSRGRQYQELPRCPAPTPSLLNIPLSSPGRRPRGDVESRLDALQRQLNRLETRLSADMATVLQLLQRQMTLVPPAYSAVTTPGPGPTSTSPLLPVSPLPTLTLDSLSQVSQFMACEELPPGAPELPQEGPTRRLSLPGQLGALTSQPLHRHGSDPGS
Measured Metric: IC50 (µM)
Only the number, expressed in µM, is required.

Would you please look over these solved cases?
> print(dat)
                                   compound                               target.desc  unit.string  obs.value
1  CCc1nccn1Cc1cn(-c2ccc(Cl)c(OC(F)F)c2)nn1 [Example 96]  hERG-receptor (Homo sapiens (Human), UniProt Q12809)           µM       4.41
2  CCc1nccn1Cc1cn(-c2ccc(Cl)c(C)c2)nn1 [Example 70]  hERG-receptor (Homo sapiens (Human), UniProt Q12809)           µM       3.92
3  CC(C)(C)c1nccn1Cc1cn(-c2ccc(Cl)c(OC(F)F)c2)nn1 [Example 95]  hERG-receptor (Homo sapiens (Human), UniProt Q12809)           µM       5.84

Which value of IC50 has been reported for FC(F)(F)c1ncn(Cc2cn(-c3ccc(Cl)cc3)nn2)n1 [Example 17] in the records? 25.6

Likewise for CC(C)c1nccn1Cc1cn(-c2ccc(F)c(C(F)F)c2)nn1 [Example 84] ? 25.1

And FC(F)(F)c1cc(-n2cc(Cn3ccnc3C3CC3)nn2)ccc1Cl [Example 66] ? 3.54

Now the compound Nc1nccn1Cc1cn(-c2ccc(Cl)c(C(F)F)c2)nn1 [Example 113A] 3.09

Again, but for Fc1cc(-n2cc(Cn3ccnc3C3CC3)nn2)ccc1Cl [Example 61] 3.62

Now consider Cc1ccc(-n2cc(Cn3ccnc3C3CC3)nn2)cc1F [Example 63] and answer again. 11.2

Try this compound next: Cc1nccn1Cc1cn(-c2ccc(Cl)c(C(F)(F)F)c2)nn1 [Example 56] 6.46

Measured values drawn from patent US9981950B2 for this set.
